Below, each of the compounds is paired with its reported IC50 value.
# studySystem: recombinant human serotonin transporter expressed in HEK-293 cells (Homo sapiens, UniProt P31645)
# Construct: expressed in transfected cells; host or cells: HEK-293
# Sequence (P31645 whole entry): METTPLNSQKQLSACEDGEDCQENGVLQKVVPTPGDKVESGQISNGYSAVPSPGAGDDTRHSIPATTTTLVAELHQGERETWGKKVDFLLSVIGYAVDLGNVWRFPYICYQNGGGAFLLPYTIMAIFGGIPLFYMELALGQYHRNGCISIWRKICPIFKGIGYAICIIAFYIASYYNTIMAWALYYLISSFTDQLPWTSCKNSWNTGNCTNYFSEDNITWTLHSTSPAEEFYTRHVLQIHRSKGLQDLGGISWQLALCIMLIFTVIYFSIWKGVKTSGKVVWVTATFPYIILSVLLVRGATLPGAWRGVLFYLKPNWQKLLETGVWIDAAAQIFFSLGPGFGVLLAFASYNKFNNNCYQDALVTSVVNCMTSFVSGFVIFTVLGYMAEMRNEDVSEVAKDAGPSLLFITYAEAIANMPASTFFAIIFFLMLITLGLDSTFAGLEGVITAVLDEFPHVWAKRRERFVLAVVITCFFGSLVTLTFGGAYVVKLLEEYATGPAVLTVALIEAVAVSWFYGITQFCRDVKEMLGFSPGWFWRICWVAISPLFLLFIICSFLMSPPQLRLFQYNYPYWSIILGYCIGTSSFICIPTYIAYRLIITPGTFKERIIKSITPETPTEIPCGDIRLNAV
# experimentDescription: Serotonin functional uptake assay for human reuptake transporter
# Format: cell-based
# cond: functional uptake of serotonin; read-out: hSERT (IC50 nM)

Worked examples, 5 compounds total:
INSERT INTO results (compound, readoutname, datavalue) VALUES
  ('Clc1ccc(C2(C3CCNC3)CCCCC2)cc1Cl (single isomer, unassigned) [Compound 2]', 'IC50', '< 100 nM'),
  ('C[C@]1(O)CC[C@@](c2ccc(Cl)c(Cl)c2)([C@H]2CCNC2)CC1', 'IC50', '< 10 nM'),
  ('O[C@H]1CC[C@@](c2ccc(Cl)c(Cl)c2)([C@@H]2CCNC2)CC1', 'IC50', '< 10 nM'),
  ('CO[C@]1(C)CC[C@](c2ccc(Cl)c(Cl)c2)([C@H]2CCNC2)CC1', 'IC50', '< 10 nM'),
  ('CN1CCC(C2(c3ccc(Cl)c(Cl)c3)CCCCC2)C1 (centres unmarked) [Compound 3]', 'IC50', '100 to 500 nM');

Prompt: Query IC50 for O[C@]1(C2(c3ccc(Cl)c(Cl)c3)CCCC2)CCNC1
Response: < 100 nM

Prompt: Quote IC50 reported for c1ccc2cc(C3(C4CCNC4)CCCC3)ccc2c1 (single isomer, unassigned) [Compound 12] please.
Response: < 1 nM

Prompt: Quote IC50 reported for C[C@]1(O)CC[C@@](c2ccc(Cl)c(Cl)c2)([C@@H]2CCNC2)CC1 please.
Response: < 10 nM

====

# studySystem: recombinant human norepinephrine transporter expressed in either HEK293 or MDCK cells (Homo sapiens, UniProt P23975)
# Construct: expressed in transfected cells; host or cells: HEK293 or MDCK
# Sequence (P23975 whole entry): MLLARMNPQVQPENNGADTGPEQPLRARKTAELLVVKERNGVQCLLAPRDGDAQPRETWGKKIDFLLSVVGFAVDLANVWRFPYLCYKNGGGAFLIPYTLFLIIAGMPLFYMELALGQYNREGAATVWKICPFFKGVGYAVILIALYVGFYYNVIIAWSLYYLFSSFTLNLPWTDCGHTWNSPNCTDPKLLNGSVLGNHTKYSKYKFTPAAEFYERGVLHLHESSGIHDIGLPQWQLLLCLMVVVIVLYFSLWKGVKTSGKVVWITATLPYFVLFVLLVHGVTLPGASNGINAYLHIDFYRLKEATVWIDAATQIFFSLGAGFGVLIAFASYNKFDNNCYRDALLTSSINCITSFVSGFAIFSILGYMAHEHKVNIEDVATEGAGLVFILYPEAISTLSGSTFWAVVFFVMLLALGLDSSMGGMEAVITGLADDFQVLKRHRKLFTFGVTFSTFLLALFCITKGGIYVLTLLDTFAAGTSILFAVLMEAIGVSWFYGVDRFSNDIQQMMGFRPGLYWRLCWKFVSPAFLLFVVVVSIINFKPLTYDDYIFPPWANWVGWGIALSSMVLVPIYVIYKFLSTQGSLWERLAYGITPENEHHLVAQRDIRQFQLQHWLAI
# experimentDescription: Norepinephrine functional uptake assay for human reuptake transporter
# Format: cell-based
# cond: functional uptake of norepinephrine
readoutName: hNET (IC50 nM)

Example molecules with recorded hNET (IC50 nM):
INSERT INTO assay_data (molecule, readoutname, datavalue) VALUES
  ('c1ccc2cc(C3(C4CCNC4)CCC3)ccc2c1 (single isomer, unassigned) [Compound 14]', 'hNET (IC50 nM)', '++ (IC50 ≦ 100 nM)'),
  ('O[C@@]1(C2(c3ccc(Cl)c(Cl)c3)CCCC2)CCNC1 [Compound 29]', 'hNET (IC50 nM)', '+++ (IC50 < 10 nM)'),
  ('Clc1ccc(C2(C3CCNC3)CCC2)cc1Cl (single isomer, unassigned) [Compound 7]', 'hNET (IC50 nM)', '++ (IC50 ≦ 100 nM)'),
  ('c1ccc2cc(C3(C4CCNC4)CCCC3)ccc2c1 (single isomer, unassigned) [Compound 12]', 'hNET (IC50 nM)', '++++ (IC50 < 1 nM)'),
  ('O[C@H]1CC[C@@](c2ccc(Cl)c(Cl)c2)([C@@H]2CCNC2)CC1 [Compound 22]', 'hNET (IC50 nM)', '+++ (IC50 < 10 nM)');

Prompt: Given O[C@H]1CC[C@](c2ccc(Cl)c(Cl)c2)([C@H]2CCNC2)CC1 [Compound 23] , respond with its hNET (IC50 nM).
Response: +++ (IC50 < 10 nM)

Prompt: Supply hNET (IC50 nM) value. Item: c1ccc2cc(C3(C4CCNC4)CCCC3)ccc2c1 (single isomer, unassigned) [Compound 11]
Response: +++ (IC50 < 10 nM)

====

# studySystem: recombinant human dopamine transporter expressed in either CHO-K1 or HEK293 cells (Homo sapiens)
# Construct: expressed in transfected cells; host or cells: CHO-K1 or HEK293
# experimentDescription: Dopamine functional uptake assay for human reuptake transporter
# Assay type: cell-based
# cond: functional uptake of dopamine
readoutName: hDAT (IC50 nM)

Recorded results for 8 compounds are shown here.
INSERT INTO measurements (compound, datavalue) VALUES
  ('O[C@]1(C2(c3ccc(Cl)c(Cl)c3)CCCC2)CCNC1 [Compound 30]', '++ (IC50 ≦ 100 nM)'),
  ('O[C@H]1CC[C@@](c2ccc(Cl)c(Cl)c2)([C@@H]2CCNC2)CC1 [Compound 22]', '+++ (IC50 < 10 nM)'),
  ('O[C@H]1CC[C@](c2ccc(Cl)c(Cl)c2)([C@H]2CCNC2)CC1 [Compound 23]', '+++ (IC50 < 10 nM)'),
  ('c1ccc2cc(C3(C4CCNC4)CCCCC3)ccc2c1 (single isomer, unassigned) [Compound 9]', '++ (IC50 ≦ 100 nM)'),
  ('CO[C@]1(C)CC[C@](c2ccc(Cl)c(Cl)c2)([C@H]2CCNC2)CC1 [Compound 25]', '+++ (IC50 < 10 nM)'),
  ('Clc1ccc(C2(C3CCNC3)CCOCC2)cc1Cl (centres unmarked) [Compound 16]', '+++ (IC50 < 10 nM)'),
  ('C[C@]1(O)CC[C@](c2ccc(Cl)c(Cl)c2)([C@@H]2CCNC2)CC1 [Compound 19]', '+++ (IC50 < 10 nM)'),
  ('O[C@@]1(C2(c3ccc(Cl)c(Cl)c3)CCCC2)CCNC1 [Compound 29]', '++ (IC50 ≦ 100 nM)');

Turning to the following compound.
Prompt: Note down hDAT (IC50 nM) recorded for C[C@]1(O)CC[C@@](c2ccc(Cl)c(Cl)c2)([C@H]2CCNC2)CC1 [Compound 17]
Response: ++ (IC50 ≦ 100 nM)

====

# studySystem: recombinant human serotonin transporter expressed in HEK-293 cells (Homo sapiens)
# Construct: expressed in transfected cells; host or cells: HEK-293
# experimentDescription: Serotonin functional uptake assay for human reuptake transporter
# Assay type: cell-based
# cond: functional uptake of serotonin; read-out: hSERT (IC50 nM)
# Method: Compounds were initially tested at 10 μM in duplicate. HEK-293 cells expressing human serotonin transporter were plated before the assay. […] Cells with internalized [^3H]serotonin were washed and the amount of tritium taken into cells is counted using a liquid scintillation counter to determine [^3H]serotonin uptake. […]
readoutName: IC50

INSERT INTO measurements (compound, readoutname, datavalue) VALUES
  ('Clc1ccc(C2(C3CCNC3)CCOCC2)cc1Cl (stereo not drawn) [Compound 15]', 'IC50', '< 100 nM'),
  ('O[C@@]1(C2(c3ccc(Cl)c(Cl)c3)CCCC2)CCNC1', 'IC50', '< 10 nM'),
  ('c1ccc2cc(C3(C4CCNC4)CCCC3)ccc2c1 (single isomer, unassigned) [Compound 11]', 'IC50', '< 1 nM'),
  ('c1ccc2cc(C3(C4CCNC4)CCCCC3)ccc2c1 (single isomer, unassigned) [Compound 10]', 'IC50', '< 1 nM'),
  ('c1ccc2cc(C3(C4CCNC4)CCCCC3)ccc2c1 (single isomer, unassigned) [Compound 9]', 'IC50', '< 10 nM');

# ---- query compound ----
Prompt: Write down IC50 measured for item Clc1ccc(C2(C3CCNC3)CCC2)cc1Cl (single isomer, unassigned) [Compound 8]
Response: < 100 nM

====

# studySystem: recombinant human dopamine transporter expressed in either CHO-K1 or HEK293 cells (Homo sapiens)
# Construct: expressed in transfected cells; host or cells: CHO-K1 or HEK293
# experimentDescription: Dopamine functional uptake assay for human reuptake transporter
# Format: cell-based
# cond: functional uptake of dopamine
readoutName: hDAT (IC50 nM)

Example compounds with recorded hDAT (IC50 nM):
INSERT INTO results (compound, readoutname, datavalue) VALUES
  ('CN1CCC(C2(c3ccc(Cl)c(Cl)c3)CCCCC2)C1 (stereo not drawn) [Compound 4]', 'hDAT (IC50 nM)', '+++ (IC50 < 10 nM)'),
  ('O[C@H]1CC[C@](c2ccc(Cl)c(Cl)c2)([C@@H]2CCNC2)CC1', 'hDAT (IC50 nM)', '+++ (IC50 < 10 nM)'),
  ('Clc1ccc(C2(C3CCNC3)CCOCC2)cc1Cl (stereo not drawn) [Compound 15]', 'hDAT (IC50 nM)', '++ (IC50 ≦ 100 nM)'),
  ('Clc1ccc(C2(C3CCNC3)CCCC2)cc1Cl (single isomer, unassigned) [Compound 6]', 'hDAT (IC50 nM)', '++ (IC50 ≦ 100 nM)'),
  ('Clc1ccc(C2(C3CCNC3)CCCCC2)cc1Cl (single isomer, unassigned) [Compound 2]', 'hDAT (IC50 nM)', '++ (IC50 ≦ 100 nM)');

Kindly consider the entry below.
Prompt: For the compound C[C@]1(O)CC[C@@](c2ccc(Cl)c(Cl)c2)([C@@H]2CCNC2)CC1 , report hDAT (IC50 nM).
Response: ++ (IC50 ≦ 100 nM)

====

# studySystem: recombinant human dopamine transporter expressed in either CHO-K1 or HEK293 cells (Homo sapiens, UniProt Q01959)
# Construct: expressed in transfected cells; host or cells: CHO-K1 or HEK293
# Sequence (Q01959 whole entry): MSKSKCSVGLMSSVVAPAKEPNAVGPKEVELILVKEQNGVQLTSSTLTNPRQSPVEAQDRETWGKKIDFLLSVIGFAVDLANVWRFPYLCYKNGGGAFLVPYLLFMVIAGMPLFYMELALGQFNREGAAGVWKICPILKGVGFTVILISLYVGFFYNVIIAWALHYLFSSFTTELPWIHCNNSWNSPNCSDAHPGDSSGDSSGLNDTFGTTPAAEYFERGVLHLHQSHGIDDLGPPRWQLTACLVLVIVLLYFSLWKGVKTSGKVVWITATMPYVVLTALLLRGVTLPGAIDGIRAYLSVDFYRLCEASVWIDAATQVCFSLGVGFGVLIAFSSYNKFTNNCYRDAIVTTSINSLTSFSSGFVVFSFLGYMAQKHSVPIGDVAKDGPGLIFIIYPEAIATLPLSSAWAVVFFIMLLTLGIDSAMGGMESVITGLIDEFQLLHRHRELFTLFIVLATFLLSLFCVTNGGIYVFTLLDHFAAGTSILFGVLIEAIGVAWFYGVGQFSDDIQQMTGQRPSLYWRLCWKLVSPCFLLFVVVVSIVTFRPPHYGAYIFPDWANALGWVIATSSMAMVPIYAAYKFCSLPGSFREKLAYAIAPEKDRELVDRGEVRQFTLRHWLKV
# experimentDescription: Dopamine functional uptake assay for human reuptake transporter
# Type: cell-based
# cond: functional uptake of dopamine
readoutName: hDAT (IC50 nM)

Example results:
INSERT INTO measurements (compound, readoutname, datavalue) VALUES
  ('c1ccc2cc(C3(C4CCNC4)CCC3)ccc2c1 (single isomer, unassigned) [Compound 13]', 'hDAT (IC50 nM)', '++ (IC50 ≦ 100 nM)'),
  ('c1ccc2cc(C3(C4CCNC4)CCCCC3)ccc2c1 (single isomer, unassigned) [Compound 10]', 'hDAT (IC50 nM)', '++ (IC50 ≦ 100 nM)'),
  ('c1ccc2cc(C3(C4CCNC4)CCCC3)ccc2c1 (single isomer, unassigned) [Compound 11]', 'hDAT (IC50 nM)', '+++ (IC50 < 10 nM)'),
  ('Clc1ccc(C2(C3CCNC3)CCCCC2)cc1Cl (single isomer, unassigned) [Compound 1]', 'hDAT (IC50 nM)', '++ (IC50 ≦ 100 nM)'),
  ('Clc1ccc(C2(C3CCNC3)CCCC2)cc1Cl (single isomer, unassigned) [Compound 5]', 'hDAT (IC50 nM)', '++ (IC50 ≦ 100 nM)'),
  ('Clc1ccc(C2(C3CCNC3)CCC2)cc1Cl (single isomer, unassigned) [Compound 8]', 'hDAT (IC50 nM)', '++ (IC50 ≦ 100 nM)'),
  ('Clc1ccc(C2(C3CCNC3)CCC2)cc1Cl (single isomer, unassigned) [Compound 7]', 'hDAT (IC50 nM)', '+++ (IC50 < 10 nM)');

Next compound, hDAT (IC50 nM) to be filled in.
Prompt: Tell me measured hDAT (IC50 nM) for CO[C@]1(C)CC[C@](c2ccc(Cl)c(Cl)c2)([C@@H]2CCNC2)CC1 [Compound 26] please.
Response: +++ (IC50 < 10 nM)
